Data origin: the supplement of paper PMC11061612

Tested on: BFTC-905 (Bladder Carcinoma)
Test: combination Emax (second highest fraction inhibited in the dose matrix, 72 h); higher = more inhibition; extreme values may be limits of the assay
As shown below, each of these molecules has a reported combination Emax value.
endpoint: combination Emax

- CN(CCO)CC[C@H](CSc1ccccc1)Nc1ccc(S(=O)(=O)NC(=O)c2ccc(N3CCC([C@@H](O)c4ccccc4-c4ccc(Cl)cc4)CC3)cc2)cc1S(=O)(=O)C(F)(F)F [AZD4320] + C[C@@H](Nc1cc(F)cc(F)c1)c1cc(C(=O)N(C)C)cc2c(=O)cc(N3CCOCC3)oc12 [AZD8186] (first compound max 1 µM, 7x7, partner max 3 µM): 0.851
- Cn1cnc2c(F)c(Nc3ccc(Br)cc3Cl)c(C(=O)NOCCO)cc21 [Selumetinib] + C=CCn1c(=O)c2cnc(Nc3ccc(N4CCN(C)CC4)cc3)nc2n1-c1cccc(C(C)(C)O)n1 [AZD1775] (first compound max 10 µM, partner max 1 µM): 0.665
- Cc1cc2ncnn2cc1Nc1ncc2c(n1)n(C1CCOCC1)c(=O)n2C [AZD7648] + CN(C)CCCOc1ccc(-c2ccc3ncc4c(c3c2)n(C2CCOCC2)c(=O)n4C)cn1 [AZD0156] (first compound max 10 µM, 7x7, partner max 1 µM): 0.221

* * *

As shown below, each of these compounds has a reported Bliss excess value.
Test system: WIL2-NS (Non-Cancerous)
Test: Bliss excess, mean over the matrix (fraction); higher = more synergy
endpoint: Bliss excess

- Cc1nc(-c2cn3c(n2)-c2ccc(-c4cnn(C(C)(C)C(N)=O)c4)cc2OCC3)n(C(C)C)n1 [Taselisib] + O=C(Nc1ccc2[nH]nc(-c3ccncc3)c2c1)[C@@H]1CCN(CC(=O)N2CCN(c3ccc(-c4ncccn4)cc3)CC2)C1 [SCH772984] (first compound max 10 µM, 7x7, partner max 5 µM): 0.106
- Cc1nc(Nc2ncc(C(=O)Nc3c(C)cccc3Cl)s2)cc(N2CCN(CCO)CC2)n1 [Dasatinib] + CC(=O)Nc1cccc(-n2c(=O)n(C3CC3)c(=O)c3c(Nc4ccc(I)cc4F)n(C)c(=O)c(C)c32)c1 [Trametinib] (first compound max 2 µM, 7x7, partner max 1 µM): 0.133
- Cc1c2c(nn1C)CSCc1cc(n(C)n1)CSc1cc(c3ccccc3c1)OCCCc1c(C(=O)O)n(C)c3c-2c(Cl)ccc13 [AZD5991] + C[C@@H](Nc1cc(F)cc(F)c1)c1cc(C(=O)N(C)C)cc2c(=O)cc(N3CCOCC3)oc12 [AZD8186] (first compound max 1 µM, 7x7, partner max 3 µM): -0.0749

* * *

Test system: SW837 (Colorectal Carcinoma)
Assay: Bliss excess, mean over the matrix (fraction); higher = more synergy
As shown below, each of these molecules has a reported Bliss excess value.
endpoint: Bliss excess

* N#Cc1cnc(Nc2cc(NC[C@H]3CNCCO3)c(C(F)(F)F)cn2)cn1 [SRA737] + C=CCn1c(=O)c2cnc(Nc3ccc(N4CCN(C)CC4)cc3)nc2n1-c1cccc(C(C)(C)O)n1 [AZD1775] (first compound max 10 µM, partner max 1 µM) | 0.0157
* NC1(C(=O)N[C@@H](CCO)c2ccc(Cl)cc2)CCN(c2ncnc3[nH]ccc23)CC1 [Capivasertib] + COc1nnc2ccc(N3CCC(c4ccc(OCCN5CCN(C)C(=O)[C@H]5C)cc4)CC3)nn12 [AZD5153] (first compound max 10 µM, 7x7, partner max 1 µM) | -0.0301
* COc1cccc(OCCCN)c1-c1cc(Nc2cnc(C#N)cn2)n[nH]1 [Prexasertib] + C[C@@H]1COCCN1C2=NC(=NC(=C2)C3(CC3)[S@](=N)(=O)C)C4=C5C=CNC5=NC=C4 [AZD6738] (first compound max 1 µM, 7x7, partner max 10 µM) | 0.0106
* Cc1c2c(nn1C)CSCc1cc(n(C)n1)CSc1cc(c3ccccc3c1)OCCCc1c(C(=O)O)n(C)c3c-2c(Cl)ccc13 [AZD5991] + C[C@@H]1COCCN1C2=NC(=NC(=C2)C3(CC3)[S@](=N)(=O)C)C4=C5C=CNC5=NC=C4 [AZD6738] (first compound max 1 µM, 7x7, partner max 10 µM) | 0.0152

* * *

System: KM12 (Colorectal Carcinoma)
Assay: Bliss excess, mean over the matrix (fraction); higher = more synergy
endpoint: Bliss excess

- Cn1cnc2c(F)c(Nc3ccc(Br)cc3Cl)c(C(=O)NOCCO)cc21 [Selumetinib] + CCN(CCO)CCCOc1ccc2c(Nc3cc(CC(=O)Nc4cccc(F)c4)[nH]n3)ncnc2c1 [AZD2811] (first compound max 10 µM, 7x7, partner max 1 µM): -0.0409
- COc1cc2c(cc1OCCCCCOc1cc3c(cc1OC)C(=O)N1C=C(C)C[C@H]1C=N3)N=C[C@@H]1CC(C)=CN1C2=O [SG3199] + O=C(c1cc(Cc2n[nH]c(=O)c3ccccc23)ccc1F)N1CCN(C(=O)C2CC2)CC1 [Olaparib] (first compound max 0.001 µM, 7x7, partner max 10 µM): -0.0301
- COc1nnc2ccc(N3CCC(c4ccc(OCCN5CCN(C)C(=O)[C@H]5C)cc4)CC3)nn12 [AZD5153] + Cn1cnc2c(F)c(Nc3ccc(Br)cc3Cl)c(C(=O)NOCCO)cc21 [Selumetinib] (first compound max 1 µM, 7x7, partner max 10 µM): -0.0166
- CCN(CCO)CCCOc1ccc2c(Nc3cc(CC(=O)Nc4cccc(F)c4)[nH]n3)ncnc2c1 [AZD2811] + C[C@@H]1COCCN1C2=NC(=NC(=C2)C3(CC3)[S@](=N)(=O)C)C4=C5C=CNC5=NC=C4 [AZD6738] (first compound max 1 µM, 7x7, partner max 10 µM): -0.0709
- CN(CCO)CC[C@H](CSc1ccccc1)Nc1ccc(S(=O)(=O)NC(=O)c2ccc(N3CCC([C@@H](O)c4ccccc4-c4ccc(Cl)cc4)CC3)cc2)cc1S(=O)(=O)C(F)(F)F [AZD4320] + Cn1cnc2c(F)c(Nc3ccc(Br)cc3Cl)c(C(=O)NOCCO)cc21 [Selumetinib] (first compound max 1 µM, 7x7, partner max 3 µM): 0.0423
- COc1cccc(OCCCN)c1-c1cc(Nc2cnc(C#N)cn2)n[nH]1 [Prexasertib] + C=CCn1c(=O)c2cnc(Nc3ccc(N4CCN(C)CC4)cc3)nc2n1-c1cccc(C(C)(C)O)n1 [AZD1775] (first compound max 1 µM, partner max 1 µM): 0.0787
- Cc1cc2ncnn2cc1Nc1ncc2c(n1)n(C1CCOCC1)c(=O)n2C [AZD7648] + CCN(CCO)CCCOc1ccc2c(Nc3cc(CC(=O)Nc4cccc(F)c4)[nH]n3)ncnc2c1 [AZD2811] (first compound max 10 µM, 7x7, partner max 1 µM): 0.004
- Cn1cnc2c(F)c(Nc3ccc(Br)cc3Cl)c(C(=O)NOCCO)cc21 [Selumetinib] + CC(C)n1c(=O)n(C)c2cnc3cc(F)c(-c4ccc(OCCCN5CCCCC5)nc4)cc3c21 [AZD1390] (first compound max 10 µM, 7x7, partner max 0.3 µM): -0.0376
- COc1nnc2ccc(N3CCC(c4ccc(OCCN5CCN(C)C(=O)[C@H]5C)cc4)CC3)nn12 [AZD5153] + C=CCn1c(=O)c2cnc(Nc3ccc(N4CCN(C)CC4)cc3)nc2n1-c1cccc(C(C)(C)O)n1 [AZD1775] (first compound max 1 µM, partner max 1 µM): -0.0456
- C[C@@H](c1ccc2nccn2c1)n1nnc2ncc(-c3cnn(C)c3)nc21 [Savolitinib] + CC1(C)CCC(CN2CCN(c3ccc(C(=O)NS(=O)(=O)c4ccc(NCC5CCOCC5)c([N+](=O)[O-])c4)c(Oc4cnc5[nH]ccc5c4)c3)CC2)=C(c2ccc(Cl)cc2)C1 [Venetoclax] (first compound max 1 µM, 7x7, partner max 1 µM): -0.0559
- CC(=O)c1c(C)c2cnc(Nc3ccc(N4CCNCC4)cn3)nc2n(C2CCCC2)c1=O [Palbociclib] + Cn1cnc2c(F)c(Nc3ccc(Br)cc3Cl)c(C(=O)NOCCO)cc21 [Selumetinib] (first compound max 10 µM, 7x7, partner max 10 µM): 0.0039
- NC1(C(=O)N[C@@H](CCO)c2ccc(Cl)cc2)CCN(c2ncnc3[nH]ccc23)CC1 [Capivasertib] + CC(C)n1c(=O)n(C)c2cnc3cc(F)c(-c4ccc(OCCCN5CCCCC5)nc4)cc3c21 [AZD1390] (first compound max 10 µM, 7x7, partner max 0.3 µM): -0.0399
- CC1(C)CCC(CN2CCN(c3ccc(C(=O)NS(=O)(=O)c4ccc(NCC5CCOCC5)c([N+](=O)[O-])c4)c(Oc4cnc5[nH]ccc5c4)c3)CC2)=C(c2ccc(Cl)cc2)C1 [Venetoclax] + C=CCn1c(=O)c2cnc(Nc3ccc(N4CCN(C)CC4)cc3)nc2n1-c1cccc(C(C)(C)O)n1 [AZD1775] (first compound max 1 µM, partner max 1 µM): -0.0538

* * *

Test system: SR (Other Blood Carcinomas)
Test: combination Emax (second highest fraction inhibited in the dose matrix, 72 h); higher = more inhibition; extreme values may be limits of the assay
As shown below, each of these compounds has a reported combination Emax value.
endpoint: combination Emax

- C[C@@H](c1ccc2nccn2c1)n1nnc2ncc(-c3cnn(C)c3)nc21 [Savolitinib] + CC1(C)CCC(CN2CCN(c3ccc(C(=O)NS(=O)(=O)c4ccc(NCC5CCOCC5)c([N+](=O)[O-])c4)c(Oc4cnc5[nH]ccc5c4)c3)CC2)=C(c2ccc(Cl)cc2)C1 [Venetoclax] (first compound max 1 µM, 7x7, partner max 1 µM): 0.437
- Cc1c2c(nn1C)CSCc1cc(n(C)n1)CSc1cc(c3ccccc3c1)OCCCc1c(C(=O)O)n(C)c3c-2c(Cl)ccc13 [AZD5991] + CCN(CCO)CCCOc1ccc2c(Nc3cc(CC(=O)Nc4cccc(F)c4)[nH]n3)ncnc2c1 [AZD2811] (first compound max 1 µM, 7x7, partner max 1 µM): 0.988
